# assay overview: Drug level in rat plasma at 1 mg/kg, iv after 4 hrs
# Type: ADME, organism-based
# Parameters: dose 1 mg/kg, route intravenous
# assay context: read-out: Drug uptake
reported endpoint: concentration at 4 h (nM)
I only need the number, in nM, no unit after it.

Consider the compound C[C@@H](O)C(=O)NC1CC(C)(C)Oc2nc(-c3ccc(Cl)cc3Cl)c(-c3ccc(Cl)cc3)cc21 (single isomer, unassigned) and give its recorded concentration at 4 h.
321

Quote concentration at 4 h reported for O=C(CO)NC1CC2(CCCCC2)Oc2nc(-c3ccccc3Cl)c(-c3ccc(Cl)cc3)cc21 (racemic) please.
16

Query concentration at 4 h for CC(C)(O)C(=O)NC1CC2(CCCCC2)Oc2nc(-c3ccccc3Cl)c(-c3ccc(Cl)cc3)cc21 (single isomer, unassigned; enantiomer 1)
3500

Fill in concentration at 4 h for record CN1c2nc(-c3ccc(Cl)cc3Cl)c(-c3ccc(Cl)cc3)cc2C(C(=O)NCO)CC1(C)C (single isomer, unassigned; enantiomer 1)
380
